# Measured target: ATP-dependent translocase ABCB1 (Homo sapiens, UniProt P08183)
# Sequence (P08183 whole entry): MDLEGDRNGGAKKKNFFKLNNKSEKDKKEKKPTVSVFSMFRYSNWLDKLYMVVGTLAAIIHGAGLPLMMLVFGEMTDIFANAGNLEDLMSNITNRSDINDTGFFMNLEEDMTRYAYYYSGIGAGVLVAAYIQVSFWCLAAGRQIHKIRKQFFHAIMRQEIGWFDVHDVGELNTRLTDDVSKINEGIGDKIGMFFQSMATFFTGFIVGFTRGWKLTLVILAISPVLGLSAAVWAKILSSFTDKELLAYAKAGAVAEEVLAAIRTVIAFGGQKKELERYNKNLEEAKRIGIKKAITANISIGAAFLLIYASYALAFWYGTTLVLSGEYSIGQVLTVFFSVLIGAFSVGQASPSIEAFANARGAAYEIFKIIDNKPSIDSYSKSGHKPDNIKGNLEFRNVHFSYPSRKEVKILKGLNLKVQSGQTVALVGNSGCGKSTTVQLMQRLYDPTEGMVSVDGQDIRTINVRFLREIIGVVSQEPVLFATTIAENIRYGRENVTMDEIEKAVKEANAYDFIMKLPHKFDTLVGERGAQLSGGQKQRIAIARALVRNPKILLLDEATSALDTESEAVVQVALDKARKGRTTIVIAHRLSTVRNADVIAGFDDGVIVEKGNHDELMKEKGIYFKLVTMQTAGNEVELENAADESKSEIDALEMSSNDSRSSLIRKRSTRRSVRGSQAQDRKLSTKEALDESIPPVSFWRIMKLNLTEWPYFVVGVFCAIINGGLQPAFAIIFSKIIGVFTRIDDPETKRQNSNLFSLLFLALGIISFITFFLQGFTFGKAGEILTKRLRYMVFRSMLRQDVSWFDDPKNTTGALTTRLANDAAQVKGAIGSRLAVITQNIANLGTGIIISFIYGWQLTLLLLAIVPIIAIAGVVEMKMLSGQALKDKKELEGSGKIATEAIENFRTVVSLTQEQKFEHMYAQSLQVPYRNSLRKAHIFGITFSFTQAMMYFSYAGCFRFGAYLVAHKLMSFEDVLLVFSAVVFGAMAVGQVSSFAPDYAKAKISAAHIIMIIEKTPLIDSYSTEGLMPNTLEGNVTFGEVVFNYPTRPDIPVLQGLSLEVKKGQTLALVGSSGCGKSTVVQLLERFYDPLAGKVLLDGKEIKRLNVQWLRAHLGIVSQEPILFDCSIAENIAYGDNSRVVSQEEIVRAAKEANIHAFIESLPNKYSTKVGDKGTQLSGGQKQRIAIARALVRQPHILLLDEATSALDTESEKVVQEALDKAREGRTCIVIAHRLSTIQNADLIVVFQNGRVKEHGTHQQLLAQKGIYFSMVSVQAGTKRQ
# Protocol description: Inhibition of MDR1 expressed in MDCK cells assessed as calcein AM accumulation by fluorescence assay
Lab note: class by EC50, see low (below 3 µM), moderate (3 µM to below 50 µM), high (50 µM or more)

Check out these entries, answers already filled in.
{"Molecule": "CCCCCCOc1nonc1S(=O)(=O)c1ccccc1", "Class label": "moderate"}
{"Molecule": "[O-][n+]1onc(-c2ccccc2)c1-c1ccccc1", "Class label": "high"}
{"Molecule": "Cc1no[n+]([O-])c1S(=O)(=O)c1ccccc1", "Class label": "moderate"}
{"Molecule": "N#Cc1no[n+]([O-])c1-c1ccccc1", "Class label": "high"}
{"Molecule": "CC1(C)CCC(C)(C)c2cc(-c3cc(-c4ccc(C(=O)O)cc4)no3)ccc21", "Class label": "low"}

Query: Category lookup for the molecule CCC(C)Oc1no[n+]([O-])c1S(=O)(=O)c1ccccc1 (stereo unspecified)
Reply: low

Query: Lab log: COc1no[n+]([O-])c1-c1ccccc1 — assign EC50 category
Reply: high

Query: Using the reported EC50, which band applies to NC(=O)c1no[n+]([O-])c1-c1ccccc1 ?
Reply: high

Query: Would you mind sorting NC(=O)c1c(S(=O)(=O)c2ccccc2)no[n+]1[O-] into the appropriate category?
Reply: high

Query: Textbook exercise: identify the category of the molecule given here, O=S(=O)(c1ccccc1)c1no[n+]([O-])c1-c1ccccc1 , according to its measured value.
Reply: moderate

Query: Which category does the recorded EC50 put Cc1c(-c2ccccc2)no[n+]1[O-] in?
Reply: high

Query: Which class is correct for the following molecule? Nc1no[n+]([O-])c1-c1ccccc1
Reply: high

Query: Class (by measured EC50) for NS(=O)(=O)c1no[n+]([O-])c1-c1ccccc1
Reply: high

Query: Kindly identify the class of NS(=O)(=O)c1c(-c2ccccc2)no[n+]1[O-] .
Reply: high

Query: Place this molecule in its band: Cc1no[n+]([O-])c1-c1ccccc1
Reply: high

Query: # classify by EC50 band: N#Cc1c(S(=O)(=O)c2ccccc2)no[n+]1[O-]
Reply: high

Query: Lab log: CC(C)Oc1no[n+]([O-])c1S(=O)(=O)c1ccccc1 — assign EC50 category
Reply: low

Query: Place this molecule in its band: NC(=O)c1c(-c2ccccc2)no[n+]1[O-]
Reply: high

Query: Which bin, given its EC50, does O=S(=O)(c1ccccc1)c1c(-c2ccccc2)no[n+]1[O-] occupy?
Reply: moderate

====

Attribute: log10(EC50)
# Measured target: Multidrug resistance-associated protein 1 (Homo sapiens)
# Protocol description: […] MRP1 expressed in MDCK cells assessed as calcein AM accumulation by fluorescence assay
Hello, just confirming the data are log10 of EC50 with units of µM.

Solved cases (5 shown):
{"Molecule": "CCCCOc1no[n+]([O-])c1S(=O)(=O)c1ccccc1", "Measured target": "Multidrug resistance-associated protein 1 (Homo sapiens)", "Readout value": 0.88}
{"Molecule": "CCOc1no[n+]([O-])c1S(=O)(=O)c1ccccc1", "Measured target": "Multidrug resistance-associated protein 1 (Homo sapiens)", "Readout value": 1.69}
{"Molecule": "CCCCCCOc1no[n+]([O-])c1S(=O)(=O)c1ccccc1", "Measured target": "Multidrug resistance-associated protein 1 (Homo sapiens)", "Readout value": 1.08}
{"Molecule": "O=S(=O)(c1ccccc1)c1c(Oc2ccccc2)no[n+]1[O-]", "Measured target": "Multidrug resistance-associated protein 1 (Homo sapiens)", "Readout value": 1.13}
{"Molecule": "O=[N+]([O-])c1c(-c2ccccc2)n[o+]n1[O-]", "Measured target": "Multidrug resistance-associated protein 1 (Homo sapiens)", "Readout value": 1.65}

Query: For Multidrug resistance-associated protein 1 (Homo sapiens), provide log10(EC50) of CC(C)Oc1no[n+]([O-])c1S(=O)(=O)c1ccccc1 please.
Reply: 1.80

====

# Measured target: ATP-dependent translocase ABCB1 (Homo sapiens)
# Protocol description: Inhibition of MDR1 expressed in MDCK cells assessed as calcein AM accumulation by fluorescence assay
# key: entry, value: EC50

{"Smiles code": "Cc1c(S(=O)(=O)c2ccccc2)no[n+]1[O-]", "Measured target": "ATP-dependent translocase ABCB1 (Homo sapiens)", "EC50": "> 100 µM"}

Query: Item: COc1c(-c2ccccc2)no[n+]1[O-] Test system: ATP-dependent translocase ABCB1 (Homo sapiens) Read-out: EC50 Value: ?
Reply: > 100 µM

Query: Value wanted: EC50 (ATP-dependent translocase ABCB1 (Homo sapiens)) of entry Nc1c(-c2ccccc2)no[n+]1[O-]
Reply: > 100 µM

====

pEC50 listing for selected compounds.
# Measured target: Multidrug resistance-associated protein 1 (Homo sapiens, UniProt P33527)
# Sequence (P33527 whole entry): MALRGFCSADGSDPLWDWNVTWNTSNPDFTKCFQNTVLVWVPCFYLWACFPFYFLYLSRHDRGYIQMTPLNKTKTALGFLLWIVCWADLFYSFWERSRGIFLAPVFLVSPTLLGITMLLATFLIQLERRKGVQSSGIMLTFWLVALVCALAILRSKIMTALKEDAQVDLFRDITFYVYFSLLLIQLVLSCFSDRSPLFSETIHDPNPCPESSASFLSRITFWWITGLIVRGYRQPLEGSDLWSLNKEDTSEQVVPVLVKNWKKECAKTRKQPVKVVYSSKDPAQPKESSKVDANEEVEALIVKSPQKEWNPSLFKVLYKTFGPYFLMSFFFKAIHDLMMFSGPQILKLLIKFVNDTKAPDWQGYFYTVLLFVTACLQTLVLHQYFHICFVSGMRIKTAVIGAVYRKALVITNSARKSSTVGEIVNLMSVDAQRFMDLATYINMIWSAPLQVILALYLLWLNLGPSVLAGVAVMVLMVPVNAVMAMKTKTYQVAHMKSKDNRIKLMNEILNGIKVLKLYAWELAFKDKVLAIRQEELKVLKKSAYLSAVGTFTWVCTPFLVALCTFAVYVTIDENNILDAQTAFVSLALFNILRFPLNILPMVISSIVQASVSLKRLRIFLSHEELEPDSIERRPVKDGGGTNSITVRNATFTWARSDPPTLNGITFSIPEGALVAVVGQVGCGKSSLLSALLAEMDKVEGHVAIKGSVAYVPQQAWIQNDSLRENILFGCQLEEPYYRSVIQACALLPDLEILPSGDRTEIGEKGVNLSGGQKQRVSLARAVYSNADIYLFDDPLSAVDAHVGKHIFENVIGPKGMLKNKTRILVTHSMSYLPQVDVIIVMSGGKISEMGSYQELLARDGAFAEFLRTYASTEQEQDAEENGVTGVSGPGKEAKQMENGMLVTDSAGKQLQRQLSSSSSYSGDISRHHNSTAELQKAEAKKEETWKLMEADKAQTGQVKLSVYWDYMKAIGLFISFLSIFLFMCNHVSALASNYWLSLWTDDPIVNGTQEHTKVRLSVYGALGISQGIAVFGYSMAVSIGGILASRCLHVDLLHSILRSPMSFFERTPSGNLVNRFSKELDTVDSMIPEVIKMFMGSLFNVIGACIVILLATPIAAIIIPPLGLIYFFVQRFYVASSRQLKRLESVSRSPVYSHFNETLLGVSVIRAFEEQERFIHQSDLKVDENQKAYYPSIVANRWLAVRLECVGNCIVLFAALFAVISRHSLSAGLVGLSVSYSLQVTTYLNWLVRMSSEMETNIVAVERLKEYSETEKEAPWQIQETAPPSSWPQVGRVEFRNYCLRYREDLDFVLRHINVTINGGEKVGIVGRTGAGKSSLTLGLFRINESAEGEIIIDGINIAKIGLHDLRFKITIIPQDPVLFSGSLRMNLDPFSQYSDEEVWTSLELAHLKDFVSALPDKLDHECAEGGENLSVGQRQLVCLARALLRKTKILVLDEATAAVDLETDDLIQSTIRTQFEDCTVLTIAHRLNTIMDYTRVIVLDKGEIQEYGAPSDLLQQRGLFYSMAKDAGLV
# Protocol description: […] MRP1 expressed in MDCK cells assessed as calcein AM accumulation by fluorescence assay
// field semantics: pEC50 = negative decimal log of concentration (mol/L)

Known results for compounds:
{"Compound": "N#Cc1c(S(=O)(=O)c2ccccc2)no[n+]1[O-]", "Measured target": "Multidrug resistance-associated protein 1 (Homo sapiens, UniProt P33527)", "pEC50": 4.14}
{"Compound": "N#Cc1no[n+]([O-])c1S(=O)(=O)c1ccccc1", "Measured target": "Multidrug resistance-associated protein 1 (Homo sapiens, UniProt P33527)", "pEC50": 4.53}
{"Compound": "CCC(C)Oc1no[n+]([O-])c1S(=O)(=O)c1ccccc1 (stereo not given)", "Measured target": "Multidrug resistance-associated protein 1 (Homo sapiens, UniProt P33527)", "pEC50": 4.34}
{"Compound": "NC(=O)c1no[n+]([O-])c1S(=O)(=O)c1ccccc1", "Measured target": "Multidrug resistance-associated protein 1 (Homo sapiens, UniProt P33527)", "pEC50": 4.07}

Read the next record carefully.
Query: Field request: pEC50 | item: O=S(=O)(c1ccccc1)c1no[n+]([O-])c1S(=O)(=O)c1ccccc1
Reply: 4.82

The origin of these recorded values is ChEMBL document CHEMBL1212912.
